SYSTEM UNDER TEST: (NANP)6 (Plasmodium falciparum)
ASSAY OVERVIEW: SPR, antibody on chip
MEASUREMENT KIND: Kd (nM)

binder="AB-007069 (antibody, V domains shown) VH: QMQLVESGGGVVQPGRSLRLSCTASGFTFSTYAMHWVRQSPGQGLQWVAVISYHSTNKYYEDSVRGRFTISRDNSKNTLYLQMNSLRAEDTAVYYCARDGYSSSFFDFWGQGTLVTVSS VL: DIQMTQSPSTLSASVGDRVAITCRASQSISRWLAWYQQQPGKAPKLLMSVASVLESGVPSRFSGSGSGTEFTLTISSLQPDDFATYYCQHYNSYFVTFGQGTKVEIK" reading_unit=nM recorded_value=1.85
binder="AB-007050 (antibody, V domains shown) VH: QMQLVESGGGVVQPGRSLRLSCTASGFTFSTYAMHWVRQSPGQGLQWVAVISQHSTNKYYEDSVRGRFTISRDNSKNTLYLQMNSLRAEDTAVYYCARDGYSSSFFDFWGQGTLVTVSS VL: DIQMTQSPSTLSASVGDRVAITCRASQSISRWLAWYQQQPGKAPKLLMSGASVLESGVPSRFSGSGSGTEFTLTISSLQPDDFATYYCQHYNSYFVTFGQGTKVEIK" reading_unit=nM recorded_value=0.54
binder="AB-007056 (antibody, V domains shown) VH: QMQLVESGGGVVQPGRSLRLSCTASGFTFSTYAMHWVRQSPGQGLQWVAVISYHSTNKYYEDSVRGRFTISRDNSKNTLYLQMNSLRAEDTAVYYCARDGYQSSFFDFWGQGTLVTVSS VL: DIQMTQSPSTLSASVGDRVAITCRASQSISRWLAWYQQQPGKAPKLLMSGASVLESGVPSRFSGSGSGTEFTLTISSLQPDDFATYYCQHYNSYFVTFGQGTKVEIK" reading_unit=nM recorded_value=0.104
binder="AB-007057 (antibody, V domains shown) VH: QMQLVESGGGVVQPGRSLRLSCTASGFTFSTYAMHWVRQSPGQGLQWVAVISYHSTNKYYEDSVRGRFTISRDNSKNTLYLQMNSLRAEDTAVYYCARDGYHSSFFDFWGQGTLVTVSS VL: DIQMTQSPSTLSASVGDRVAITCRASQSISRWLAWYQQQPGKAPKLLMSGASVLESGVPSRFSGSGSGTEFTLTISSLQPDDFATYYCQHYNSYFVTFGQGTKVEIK" reading_unit=nM recorded_value=0.0419
binder="AB-007060 (antibody, V domains shown) VH: QMQLVESGGGVVQPGRSLRLSCTASGFTFSTYAMHWVRQSPGQGLQWVAVISYHSTNKYYEDSVRGRFTISRDNSKNTLYLQMNSLRAEDTAVYYCARDGYSSSYFDFWGQGTLVTVSS VL: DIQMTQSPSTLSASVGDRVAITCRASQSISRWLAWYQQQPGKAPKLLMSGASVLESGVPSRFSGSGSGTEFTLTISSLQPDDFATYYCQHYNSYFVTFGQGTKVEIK" reading_unit=nM recorded_value=1.21
